B1: OR4K15 (parent)
chain: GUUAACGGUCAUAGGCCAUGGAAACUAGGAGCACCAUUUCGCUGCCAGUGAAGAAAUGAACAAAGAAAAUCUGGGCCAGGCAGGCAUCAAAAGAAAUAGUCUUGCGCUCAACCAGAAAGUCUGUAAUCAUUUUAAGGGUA

variants of: B1; assay: self-cleavage, relative activity (ratio to wild type); higher = more cleavage; in vitro, sequencing; the parent is a self-cleaving ribozyme
Note to self: class = bucket of self-cleavage, per class 1 (below 0.5), class 2 (0.5 to below 1), class 3 (1 or more)

# MUTATION NAME, LABEL VALUE
rows = [
    ("A5G A110G", "class 1"),
    ("C6A A68G", "class 3"),
    ("U57A A98G", "class 1"),
    ("U12C U102C", "class 3"),
    ("A55G U124A", "class 2"),
    ("C6U A64G", "class 3"),
    ("A64G U127A", "class 3"),
    ("U70C A129U", "class 1"),
    ("U12C C105U", "class 1"),
    ("U133C A140U", "class 3"),
    ("A23G U103A", "class 2"),
    ("A52G C71G", "class 1"),
    ("U9A A114U", "class 1"),
    ("A36G U132A", "class 3"),
    ("A13G U139C", "class 3"),
    ("U19C C40U", "class 3"),
    ("U26G A66G", "class 3"),
    ("A30G A126G", "class 3"),
    ("A11U G75C", "class 1"),
    ("U38C U70A", "class 2"),
    ("U2A A62G", "class 3"),
    ("C17U U38C", "class 3"),
    ("U49C U139A", "class 3"),
    ("A62U A63U", "class 3"),
    ("A66G A114U", "class 1"),
    ("U3C C71U", "class 1"),
    ("A126U U139A", "class 3"),
    ("A129G A135U", "class 3"),
    ("U87C C109U", "class 1"),
    ("A78C A96G", "class 1"),
    ("A55U U57G", "class 3"),
    ("A69U A90G", "class 3"),
    ("C32U A86G", "class 3"),
    ("A64G A110G", "class 1"),
    ("U2C A116G", "class 2"),
    ("A118G A125U", "class 3"),
    ("A86G U120C", "class 1"),
    ("U133C A140G", "class 3"),
    ("U87A A117G", "class 3"),
    ("A5G A13U", "class 2"),
    ("U2C U9C", "class 2"),
    ("A30U A33G", "class 2"),
    ("A55U A59U", "class 3"),
    ("A47U A78G", "class 1"),
    ("A36G G65U", "class 3"),
    ("A91G U120C", "class 2"),
    ("A54G U124C", "class 2"),
    ("A54G U120C", "class 1"),
    ("G74A U108C", "class 1"),
    ("A5C U102A", "class 3"),
    ("U97C C113A", "class 1"),
]
